growth inhibition values for the compounds below.
# TEST_SUMMARY: A549 NSCLC cell proliferation inhibitors – ATP luminescence, human non-small cell lung line, primary screen (AID 371);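 note: compound exposure lasted 72 h before the ATP read; 0% = untreated cell signal and 100% = no luminescence left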
# RUN_CONDITIONS: at 10 µM, active compounds read high
Among all 3,300 compounds or so, about 280 (8.5%) were called active. Shown is part of a subset that was picked to be rich in actives.
Reply numerically in %, unit not repeated.

| COMPOUND | VALUE_UNIT | ASSAY_VALUE |
| --- | --- | --- |
| COCCOC(=O)c1c(C)nc(SCC(=O)Nc2ccc(OC)cc2)c(C#N)c1-c1ccco1 | % | 5.46 |
| CCCCCCc1cc2cc(C(=O)NC)c(=N)oc2cc1O | % | 87.4 |
| CN1CCN(C(=O)CSc2nc(-c3cccs3)ccc2C#N)CC1 | % | 3.23 |
| CNC(=O)c1cc2c(ccc3ccccc32)oc1=N | % | 9.88 |
| CC[C@H]1OC(=O)C[C@@H](O)[C@H](C)[C@@H](O[C@@H]2O[C@H](C)C[C@H](N(C)C)[C@H]2O)[C@@H](CC=O)C[C@@H](C)C(=O)C=C[C@]2(C)O[C@H]2[C@@H]1C | % | 24.4 |
| CC(C)C(=O)N1CCN(c2nc(-c3ccccc3)c3c(c2C#N)CCCC3)CC1 | % | 68 |

Enquiry: Read off the recorded growth inhibition for Cc1ccc(-c2ccccc2NC(=O)C2C3C=CC(C3)C2C(=O)O)o1 (stereo not given)
Return: 1.09

Enquiry: Let me know recorded growth inhibition for `C/C(=N\O)c1ccc2[nH]ccc2c1` , thanks.
Return: 9.01

Enquiry: Read the entry `COc1ccc(-c2nnc3sc(-c4c(OC)cccc4OC)nn23)cc1` and write its reported growth inhibition.
Return: 16.6

Enquiry: Using the record for `Nc1c(C(=O)NCc2ccco2)sc2nc(N3CCOCC3)c3c(c12)CCCC3` , state its measured growth inhibition.
Return: 18.2

----------
# TEST_SUMMARY: A549 NSCLC cell proliferation inhibitors – ATP luminescence, human non-small cell lung line, primary screen (AID 371);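 note: compound exposure lasted 72 h before the ATP read; 0% = untreated cell signal and 100% = no luminescence left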
# RUN_CONDITIONS: at 10 µM
Hit rate of the full screen: of about 3,300 compounds, about 280 (8.5%) were called active.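 How the source made its calls: active means mean growth inhibition over the two runs of 50% or more; inactive means mean growth inhibition under 50%.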 The full list was thinned out, with actives kept by preference.
Your answer must be one of the following: T (active), F (inactive)

| COMPOUND | CLASS_ASSIGNMENT |
| --- | --- |
| O=C(C1=C(O)C(=O)N(CCN2CCOCC2)C1c1cccnc1)c1cc2ccccc2o1 (stereo unspecified) | F |

Enquiry: How did this test come out for `COc1ccc(CNc2oc(COc3ccc(Cl)cc3)nc2C#N)cc1` ?
Return: T

Enquiry: Hello, I am checking results. What call was entered for `c1coc(CNc2ncnc3ccccc23)c1` ?
Return: F

----------
# TEST_SUMMARY: A549 NSCLC cell proliferation inhibitors – ATP luminescence, human non-small cell lung line, primary screen (AID 371);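 note: compound exposure lasted 72 h before the ATP read; 0% = untreated cell signal and 100% = no luminescence left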
# RUN_CONDITIONS: at 10 µM, active compounds read high
Among all 3,300 compounds or so, about 280 (8.5%) were called active. The sample as a whole holds a higher share of actives than the screen did.
OBSERVATION_TYPE: growth inhibition (%)
Response body: numeric value in %, unit text excluded.

| COMPOUND | ASSAY_VALUE |
| --- | --- |
| CC(C)c1nc2n[nH]c(N)c2c2c1CCC2 | -2.18 |
| CC(C)C1Cc2c(C#N)c(N)n(C)c(=S)c2CO1 (stereo unspecified) | 11.2 |

Enquiry: Note down growth inhibition recorded for `CCOc1ccc(S(=O)(=O)NC(C)(C)C)cc1-c1nc2c(C(C)(C)C)nn(C)c2c(=O)[nH]1`
Return: 62.9

Enquiry: # return recorded growth inhibition for input OC(CCN1CCCC1)(c1ccccc1)C1CCCCC1 (stereo unspecified)
Return: 7.22

Enquiry: Please indicate growth inhibition recorded for `CCOc1ccc(S(=O)(=O)N(C)CCO)cc1-c1nc2c(C(C)(C)C)nn(C)c2c(=O)[nH]1`
Return: 22

Enquiry: Output growth inhibition of `CCC1=Nc2ccccc2NC2=C1C(=O)CCC2`
Return: 1
